# Lookup of reported Population Hoechst High Intensity Objects (%) keyed by entry
# System: HEK-293T
# Experiment Summary: Multiplex assay against HEK293T
# Format: toxicity, cell-based
# Recorded Conditions: human, 24 h, 10 µM, compound concentration 10 uM, replicate 1
Assay Readout: Population Hoechst High Intensity Objects (%)

Compound | Result
Cc1c(P(=S)(c2ccccc2)c2ccccc2)n2ccccc2[n+]1C/C=C/c1ccccc1.[Br-] | 21
CCCCCNC(=N)N/N=C/c1c[nH]c2ccc(OC)cc12.O=C(O)/C=C\C(=O)O [TEGASEROD MALEATE] | 35
Cc1c(Nc2ccc(S(=O)(=O)N3CCN(C)CC3)cc2F)nc2ccc(Nc3cnn(C4CC4)c3)cn2c1=O | 4
CCOC(=O)CCNc1cc(N2CCc3ccccc3CC2)nc(-c2ccccn2)n1 | 18
Cc1ccc(S(=O)(=O)NC2c3ccccc3Oc3ccccc32)cc1 | 10
Oc1cccc(-c2nc(N3CCOCC3)c3oc4ncccc4c3n2)c1 [PI-103] | 17
N#CCNC(=O)c1ccc(-c2ccnc(Nc3ccc(N4CCOCC4)cc3)n2)cc1 [MOMELOTINIB] | 6
C[C@@H](Oc1cc(-n2cnc3ccc(CN4CCN(C)CC4)cc32)sc1C(N)=O)c1ccccc1C(F)(F)F [GSK-461364] | 25
c1ccc(-c2oc3ncnc(NC[C@@H]4CCCO4)c3c2-c2ccccc2)cc1 | 23

* * *

# Lookup of reported Population Mitotic Cells (%) keyed by entry
# System: HEK-293T
# Experiment Summary: Multiplex assay against HEK293T
# Type: toxicity, cell-based
# Recorded Conditions: human, 24 h, 1 µM, compound concentration 1 uM, replicate 2
Assay Readout: Population Mitotic Cells (%)

Compound | Assay Readout | Value Units | Result
Cl.Cn1c2c(c3ccc(Cl)c(Cl)c31)C(C#N)C1(CCNCC1)NC2=O (centres undefined) | Population Mitotic Cells (%) | % | 94
CC[C@@H]1C(=O)N(C)c2cnc(Nc3ccc(C(=O)NC4CCN(C)CC4)cc3OC)nc2N1C1CCCC1 [BI-2536] | Population Mitotic Cells (%) | % | 93
C[C@@H](Oc1cc(-n2cnc3ccc(CN4CCN(C)CC4)cc32)sc1C(N)=O)c1ccccc1C(F)(F)F [GSK-461364] | Population Mitotic Cells (%) | % | 61
Oc1cccc(-c2nc(N3CCOCC3)c3oc4ncccc4c3n2)c1 [PI-103] | Population Mitotic Cells (%) | % | 46
CN1C(=O)[C@@H](NC(=O)c2cc3ccccc3[nH]2)N=C(c2ccccc2)c2ccccc21 [DEVAZEPIDE] | Population Mitotic Cells (%) | % | 85
CC[C@H](Nc1ncnc2[nH]cnc12)c1nc2cccc(F)c2c(=O)n1-c1ccccc1 [IDELALISIB] | Population Mitotic Cells (%) | % | 91
CC(/C=C1\SC(=S)N(CCCC(=O)Nc2ccc(C(=O)O)c(O)c2)C1=O)=C\c1ccccc1 | Population Mitotic Cells (%) | % | 84
CC(C)[C@H](CO)Nc1nc(Nc2cccc(Cl)c2)c2ncn(C(C)C)c2n1 [PURVALANOLA] | Population Mitotic Cells (%) | % | 85
C=CC(=O)Nc1cc(-n2c(=O)ccc3cnc4ccc(-c5ccc(NS(C)(=O)=O)cc5)cc4c32)ccc1C | Population Mitotic Cells (%) | % | 88
CCCCCNC(=N)N/N=C/c1c[nH]c2ccc(OC)cc12.O=C(O)/C=C\C(=O)O [TEGASEROD MALEATE] | Population Mitotic Cells (%) | % | 75
Cc1c(Nc2ccc(S(=O)(=O)N3CCN(C)CC3)cc2F)nc2ccc(-c3cnn(C4CC4)c3)cn2c1=O | Population Mitotic Cells (%) | % | 98
Cc1ccc(S(=O)(=O)NC2c3ccccc3Oc3ccccc32)cc1 | Population Mitotic Cells (%) | % | 77
N#Cc1cccc(C(=O)Nc2cc(-c3ccccc3)nn2-c2ccccc2)c1 | Population Mitotic Cells (%) | % | 88
NC(=O)c1ccc2nc(-c3ccc(C4(N)CCC4)cc3)c(-c3ccccc3)n2n1 [BAY-1125976] | Population Mitotic Cells (%) | % | 89
Cl.NC[C@@H]1O[C@H](C23CC4CC(CC(C4)C2)C3)Cc2c1ccc(O)c2O | Population Mitotic Cells (%) | % | 87
CCCc1cc(C)[nH]c(=O)c1CNC(=O)c1cc(-c2ccc(N3CCN(C(C)C)CC3)nc2)cc2c1cnn2C(C)C | Population Mitotic Cells (%) | % | 42
CN(c1cc(C(F)(F)F)nc(OCCC(=O)O)n1)c1cccc2c1CCC2 | Population Mitotic Cells (%) | % | 78
CCOC(=O)CCNc1cc(N2CCc3ccccc3CC2)nc(-c2ccccn2)n1 | Population Mitotic Cells (%) | % | 98
CC(Cc1ccc(O)c(O)c1)C(C)Cc1ccc(O)c(O)c1 (centres undefined) [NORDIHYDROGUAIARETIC ACID] | Population Mitotic Cells (%) | % | 81

* * *

# System: HEK-293T
# Experiment Summary: Multiplex assay against HEK293T
# Type: toxicity, cell-based
# Recorded Conditions: human, 12 h, 10 µM, compound concentration 10 uM, replicate 1
Assay Readout: Population Pyknosed Nuclei (%)

Molecule | Result
CC(Cc1ccc(O)c(O)c1)C(C)Cc1ccc(O)c(O)c1 (stereo not given) [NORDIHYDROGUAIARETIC ACID] | 37%
CN1C(=O)[C@@H](NC(=O)c2cc3ccccc3[nH]2)N=C(c2ccccc2)c2ccccc21 [DEVAZEPIDE] | 63%
CN(c1cc(C(F)(F)F)nc(OCCC(=O)O)n1)c1cccc2c1CCC2 | 41%
CCCCCNC(=N)N/N=C/c1c[nH]c2ccc(OC)cc12.O=C(O)/C=C\C(=O)O [TEGASEROD MALEATE] | 72%
N#Cc1cccc(C(=O)Nc2cc(-c3ccccc3)nn2-c2ccccc2)c1 | 57%

* * *

# Test system: U2OS
# Experiment Summary: Incucyte cell viability with U2OS; note: filed as whole numbers so only -1 and 0 and 1 occur
# Type: toxicity, cell-based
# Recorded Conditions: human, 0 h, 10 µM, compound concentration 10 uM, replicate number 1, timepoint 0 hours

Molecule | Growth Rate
COc1cc(C)c(Sc2cnc(NC(=O)c3ccc(CNC(C)C(C)(C)C)cc3)s2)cc1C(=O)N1CCN(C(C)=O)CC1 (centres undefined) | 0
CCCCN(CC)c1nc(C)nc2c1c(C)cn2-c1c(C)cc(C)cc1C.Cl | 0
C[C@H](NC(=O)Nc1cc2[nH]ncc2c(CO)n1)c1ccccn1 | 0
O=C(NNS(=O)(=O)c1ccccc1)c1cc(-c2ccnnc2)ccc1F | 1
CS(=O)(=O)N1CCCC(NC(=O)[C@H](CCC2CCCCC2)NC(=O)c2ccc(CNC(=O)c3cnc4ccccn34)cc2)C1 (some centres undefined) | 0
CC[C@H](Nc1ncnc2[nH]cnc12)c1nc2cccc(F)c2c(=O)n1-c1ccccc1 | 0
CN(c1cc(C(F)(F)F)nc(OCCC(=O)O)n1)c1cccc2c1CCC2 | 0
CC(Cc1ccc(O)c(O)c1)C(C)Cc1ccc(O)c(O)c1 (centres undefined) [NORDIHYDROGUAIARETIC ACID] | 0
CC(C)c1ccc(CC(=O)N2CCC[C@@H](c3cccc(OC(C)(C)C(=O)O)c3)C2)cc1 | 0

* * *

# System: HEK-293T
# Experiment Summary: Multiplex assay against HEK293T
# Assay type: toxicity, cell-based
# Recorded Conditions: human, 24 h, 1 µM, compound concentration 1 uM, replicate 2

Molecule | Value Units | Population Apoptotic (%)
Cc1c(P(=S)(c2ccccc2)c2ccccc2)n2ccccc2[n+]1C/C=C/c1ccccc1.[Br-] | % | 88
C=CC(=O)Nc1cc(-n2c(=O)ccc3cnc4ccc(-c5ccc(NS(C)(=O)=O)cc5)cc4c32)ccc1C | % | 11
Cc1ccc(S(=O)(=O)NC2c3ccccc3Oc3ccccc32)cc1 | % | 22
CC[C@@H]1C(=O)N(C)c2cnc(Nc3ccc(C(=O)NC4CCN(C)CC4)cc3OC)nc2N1C1CCCC1 [BI-2536] | % | 6
CC[C@H](Nc1ncnc2[nH]cnc12)c1nc2cccc(F)c2c(=O)n1-c1ccccc1 [IDELALISIB] | % | 8
Cc1c(Nc2ccc(S(=O)(=O)N3CCN(C)CC3)cc2F)nc2ccc(Nc3cnn(C4CC4)c3)cn2c1=O | % | 12
NC(=O)c1ccc2nc(-c3ccc(C4(N)CCC4)cc3)c(-c3ccccc3)n2n1 [BAY-1125976] | % | 10
CC(/C=C1\SC(=S)N(CCCC(=O)Nc2ccc(C(=O)O)c(O)c2)C1=O)=C\c1ccccc1 | % | 16
CCOC(=O)CCNc1cc(N2CCc3ccccc3CC2)nc(-c2ccccn2)n1 | % | 1
N#Cc1cccc(C(=O)Nc2cc(-c3ccccc3)nn2-c2ccccc2)c1 | % | 12
CCCCCNC(=N)N/N=C/c1c[nH]c2ccc(OC)cc12.O=C(O)/C=C\C(=O)O [TEGASEROD MALEATE] | % | 24
Cc1c(Nc2ccc(S(=O)(=O)N3CCN(C)CC3)cc2F)nc2ccc(-c3cnn(C4CC4)c3)cn2c1=O | % | 1
N#CCNC(=O)c1ccc(-c2ccnc(Nc3ccc(N4CCOCC4)cc3)n2)cc1 [MOMELOTINIB] | % | 10
CCCc1cc(C)[nH]c(=O)c1CNC(=O)c1cc(-c2ccc(N3CCN(C(C)C)CC3)nc2)cc2c1cnn2C(C)C | % | 57
Cl.Cn1c2c(c3ccc(Cl)c(Cl)c31)C(C#N)C1(CCNCC1)NC2=O (stereo not drawn) | % | 5
Oc1cccc(-c2nc(N3CCOCC3)c3oc4ncccc4c3n2)c1 [PI-103] | % | 53
CC(C)C[C@H](NC(=O)[C@H](Cc1ccccc1)NC(=O)CNC(=O)CNC(=O)[C@@H](N)Cc1ccc(O)cc1)C(=O)O [ENKEPHALIN] | % | 10
CC(C)[C@H](CO)Nc1nc(Nc2cccc(Cl)c2)c2ncn(C(C)C)c2n1 [PURVALANOLA] | % | 14
